The origin of these recorded values is PubChem BioAssay (NCI).

test system: CAKI-1 renal; experiment: NCI-60 one-dose screen, 48 h (100 = growth as untreated, 0 = no growth, -100 = all killed); details: 10 µM unless noted
Compounds without any hit were thinned out: in the full panel of roughly 83,000, 20% have a hit.
Rule: growth below 20% gives true (1). Equal to or above 20% gives false (0).

Worked examples follow.
COMPOUND STRING | DISCRETE LABEL
COc1ccc(C(=O)/C=C/c2ccc(OCc3ccc(F)cc3)c(OC)c2)cc1OC | false (0)
COc1ccc(C(=O)/C=C/c2cccc(Br)c2)cc1S(N)(=O)=O | true (1)
O=C1/C(=C/C2=Cc3ccccc3OC2)SC(=S)N1c1ccccc1F | false (0)
COc1ccc(C(=O)/C=C/c2c(F)cccc2Cl)cc1S(N)(=O)=O | true (1)
N#Cc1c(-c2cccc(Cl)c2Cl)cc(-c2ccc3ccccc3c2)[nH]c1=O | false (0)

IN: Dear colleague, could you confirm whether growth of `Cc1ccc(C(=O)CSc2nc3ccc(F)cc3c(=O)n2-c2ccc(Cl)cc2)cc1` falls below 20%? Thanks.
OUT: true (1)

IN: Is it true that growth reported for `NS(=O)(=O)c1ccc(N=Nc2c(O)n(CC(=O)Nc3ccccc3)c3ccccc23)cc1` is less than 20%?
OUT: true (1)

----------
test system: IGROV1 ovarian; assay: NCI-60 one-dose screen, 48 h (100 = growth as untreated, 0 = no growth, -100 = all killed); conditions: 10 µM unless noted
The panel holds about 83,000 compounds, 20% with a hit somewhere; the sample as a whole holds those more often.
Response field class: string, computed from recorded growth by ranges bin 0: < 60%; bin 1: ≥ 60% and < 90%; bin 2: ≥ 90%

# count of solved cases: 3
COMPOUND | TARGET UNDER TEST | DISCRETE LABEL
O=C(NN1C(=O)/C(=C/C=C/c2ccc([N+](=O)[O-])o2)SC1=S)c1cccc(O)c1 | IGROV1 ovarian | bin 0
N#Cc1c(-c2ccccc2Cl)cc(-c2ccc3ccccc3c2)[nH]c1=O | IGROV1 ovarian | bin 0
C=C1CCC2C3(C)COC(c4ccc(F)cc4)OC3CCC2(C)C1CC(O)C1=CCOC1=O (stereo not given) | IGROV1 ovarian | bin 0

IN: State the band of `Cc1ccc2c(N)c(C(=O)Nc3ccc(-c4ccccc4)cc3)sc2n1`
OUT: bin 1

IN: # bin lookup: classify `N/C(=N\N=C\c1ccc([N+](=O)[O-])cc1)c1c(N)nc(=S)[nH]c1-c1ccc(Cl)cc1Cl` by its growth
OUT: bin 2

IN: Where would `CC1=C(C#N)C2=NNCC(c3ccccc3)=NN2C(c2ccccc2)=C1` land among the classes by reported growth?
OUT: bin 2

IN: Please classify: `Cc1ccc(-c2nnc3ccc(N/N=C/c4ccccc4)nn23)cc1`
OUT: bin 2

IN: For this compound, which bin applies? CC(=O)OC[C@@]1(C)C2CC[C@]3(C)C(CC=C4C5CC(C)(C)CC[C@]5(C(=O)Nc5ccc(Br)cc5)CC[C@]43C)[C@@]2(C)C[C@@H](OC(C)=O)[C@@H]1OC(C)=O (stereo not given in full)
OUT: bin 0

IN: Given CC1=C(C(=O)c2ccccc2)C(c2cccc3ccccc23)n2c(nc3ccccc32)N1 (stereo not given) , name the class its growth places it in.
OUT: bin 1

----------
tested on: NCI-H322M lung; assay: NCI-60 one-dose screen, 48 h (100 = growth as untreated, 0 = no growth, -100 = all killed); conditions: 10 µM unless noted
The panel holds about 83,000 compounds, 20% with a hit somewhere; the sample as a whole holds those more often.
Reported growth by item:
State just the number; it will be interpreted in %.

MOLECULE | TARGET UNDER TEST | growth (%)
C=C1CC[C@@H]2[C@]3(C)COC(c4cn[nH]c4-c4cccc(Cl)c4)O[C@@H]3CC[C@@]2(C)[C@@H]1C/C=C1/C(=O)OCC1O (stereo partly specified) | NCI-H322M lung | 37.9
CC(=O)Oc1ccc(/C=C/C(=O)N[C@@H](Cc2ccccc2)C(O)C(=O)NCc2ccccc2)cc1OC(C)=O (stereo partly specified) | NCI-H322M lung | 83.4
COCOc1cc2oc(C(=O)N[C@@H](Cc3ccccc3)C(O)C(=O)NCc3ccccc3)c(C)c(=O)c2cc1OCOC (stereo partly specified) | NCI-H322M lung | 97.7
O=C(O)Cn1c(O)c(/C=C2/C=c3cc4c(cc3=NC2=O)OCCO4)sc1=S | NCI-H322M lung | 101
Cn1cc(NC(=O)c2cc(NC(=O)c3ccc(/C=C/c4ccccc4)cc3)cn2C)cc1C(=O)NCCCN1CCOCC1 | NCI-H322M lung | 69.9

Lab note: next molecule to report on.
IN: Give growth; test system NCI-H322M lung; molecule `CN(C)c1nc(NCCNS(=O)(=O)c2ccc(C(=O)/C=C/c3ccc(Cl)cc3)cc2)nc(Nc2ccc(F)cc2)n1`
OUT: 6.91
